Sourced from patent US20070021495A1

target: purified full-length human ERbeta (Homo sapiens); construct: purified full-length human ERalpha and ERbeta receptors purchased from Pan Vera (Madison, Wis.); purchased Pan Vera (Madison, Wis.); assay: Competitive radiometric binding assay, relative binding affinity (RBA), ERbeta; details: ratio of RBA ERβ to RBA ERα
OUTCOME MEASURE: ERβ/ERα (ratio of RBAs)
Lab note: record just the number, no unit beside it.

# annotated cases, reported ERβ/ERα (ratio of RBAs) shown
Lab note: need ERβ/ERα (ratio of RBAs) with purified full-length human ERbeta (Homo sapiens) for entry O=S(=O)(c1ccc(O)cc1)N(CCC(F)(F)F)c1ccc(O)c(Cl)c1 [Compound 28b] , please look it up.
7.7

Lab note: need ERβ/ERα (ratio of RBAs) with purified full-length human ERbeta (Homo sapiens) for entry CCCN(c1ccc(O)c(Cl)c1)S(=O)(=O)c1ccc(O)cc1 [Compound 24b] , please look it up.
7.6

Lab note: need ERβ/ERα (ratio of RBAs) with purified full-length human ERbeta (Homo sapiens) for entry O=S(=O)(c1ccc(O)cc1)N(CC(F)(F)F)c1ccc(O)cc1 [Compound 20k] , please look it up.
8.5

Lab note: need ERβ/ERα (ratio of RBAs) with purified full-length human ERbeta (Homo sapiens) for entry CCCCN(c1ccc(O)cc1)S(=O)(=O)c1ccc(O)cc1 [Compound 20d] , please look it up.
50

Lab note: need ERβ/ERα (ratio of RBAs) with purified full-length human ERbeta (Homo sapiens) for entry CCC(C)N(c1ccc(O)cc1)S(=O)(=O)c1ccc(O)cc1 (racemic) [Compound 20h (Racemic)] , please look it up.
162

Lab note: need ERβ/ERα (ratio of RBAs) with purified full-length human ERbeta (Homo sapiens) for entry CCC(CC)N(c1ccc(O)cc1)S(=O)(=O)c1ccc(O)cc1 [Compound 20j] , please look it up.
6.1

Turning now to a further record.
Lab note: need ERβ/ERα (ratio of RBAs) with purified full-length human ERbeta (Homo sapiens) for entry O=S(=O)(c1ccc(O)cc1)N(CCC(F)(F)F)c1ccc(O)cc1 [Compound 20l] , please look it up.
212

* * *

target: purified full-length human ERbeta (Homo sapiens, UniProt Q92731); construct: purified full-length human ERalpha and ERbeta receptors purchased from Pan Vera (Madison, Wis.); purchased Pan Vera (Madison, Wis.); assay: Competitive radiometric binding assay, relative binding affinity (RBA), ERbeta; conditions: ratio of RBA ERβ to RBA ERα
Sequence (Q92731 whole entry): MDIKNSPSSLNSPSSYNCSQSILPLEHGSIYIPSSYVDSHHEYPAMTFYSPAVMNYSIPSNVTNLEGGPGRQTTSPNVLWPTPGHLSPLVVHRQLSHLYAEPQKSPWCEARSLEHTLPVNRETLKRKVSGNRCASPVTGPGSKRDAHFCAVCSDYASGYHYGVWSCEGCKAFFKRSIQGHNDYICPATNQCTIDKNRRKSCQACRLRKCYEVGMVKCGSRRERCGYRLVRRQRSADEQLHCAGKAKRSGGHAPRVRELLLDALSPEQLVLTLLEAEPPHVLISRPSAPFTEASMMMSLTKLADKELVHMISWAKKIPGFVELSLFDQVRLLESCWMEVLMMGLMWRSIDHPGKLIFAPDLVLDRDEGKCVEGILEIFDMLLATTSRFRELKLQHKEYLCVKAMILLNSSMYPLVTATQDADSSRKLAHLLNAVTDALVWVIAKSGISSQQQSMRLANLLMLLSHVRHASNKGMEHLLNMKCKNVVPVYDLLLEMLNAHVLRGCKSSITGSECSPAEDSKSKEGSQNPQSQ
ERβ/ERα (ratio of RBAs) values by entry
Lab note: record just the number, no unit beside it.

Given the entry CCCC(C)N(c1ccc(O)cc1)S(=O)(=O)c1ccc(O)cc1 (stereo not drawn) [Compound 20i] , report its measured ERβ/ERα (ratio of RBAs).
100

Given the entry CC(C)N(c1ccc(O)cc1)S(=O)(=O)c1ccc(O)cc1 [Compound 20g] , report its measured ERβ/ERα (ratio of RBAs).
18

Given the entry CCCCCN(c1ccc(O)cc1)S(=O)(=O)c1ccc(O)cc1 [Compound 20f] , report its measured ERβ/ERα (ratio of RBAs).
13

Given the entry CCCN(c1ccc(O)cc1)S(=O)(=O)c1ccc(O)cc1 [Compound 20c] , report its measured ERβ/ERα (ratio of RBAs).
98

Given the entry CN(c1ccc(O)cc1)S(=O)(=O)c1ccc(O)cc1 [Compound 20a] , report its measured ERβ/ERα (ratio of RBAs).
6.4

Given the entry O=S(=O)(c1ccc(O)cc1)N(CCC(F)(F)F)c1ccc(O)c(F)c1 [Compound 28a] , report its measured ERβ/ERα (ratio of RBAs).
20

Given the entry CC(C)CN(c1ccc(O)cc1)S(=O)(=O)c1ccc(O)cc1 [Compound 20e] , report its measured ERβ/ERα (ratio of RBAs).
11

Given the entry CCN(c1ccc(O)cc1)S(=O)(=O)c1ccc(O)cc1 [Compound 20b] , report its measured ERβ/ERα (ratio of RBAs).
40

Given the entry CCCN(c1ccc(O)c(F)c1)S(=O)(=O)c1ccc(O)cc1 [Compound 24a] , report its measured ERβ/ERα (ratio of RBAs).
23

* * *

target: purified full-length human ERbeta (Homo sapiens); construct: purified full-length human ERalpha and ERbeta receptors purchased from Pan Vera (Madison, Wis.); purchased Pan Vera (Madison, Wis.); assay: Competitive radiometric binding assay, relative binding affinity (RBA), ERbeta; details: normalized to estradiol set at 100%; [3H]estradiol 10 nM tracer, 18-24 h at 0° C
For each record, check the reported Relative binding affinity (RBA) ERβ: if it is below 0.1% write fulfilled, else write not fulfilled.

Example results:
Determine whether this compound shows Relative binding affinity (RBA) ERβ lower than 0.1% (ties excluded): O=S(=O)(c1ccc(O)cc1)N(CCC(F)(F)F)c1ccc(O)c(Cl)c1 [Compound 28b]
fulfilled

Determine whether this compound shows Relative binding affinity (RBA) ERβ lower than 0.1% (ties excluded): O=S(=O)(c1ccc(O)cc1)N(CCC(F)(F)F)c1ccc(O)c(F)c1 [Compound 28a]
not fulfilled

Determine whether this compound shows Relative binding affinity (RBA) ERβ lower than 0.1% (ties excluded): CN(c1ccc(O)cc1)S(=O)(=O)c1ccc(O)cc1 [Compound 20a]
fulfilled

Determine whether this compound shows Relative binding affinity (RBA) ERβ lower than 0.1% (ties excluded): CCCN(c1ccc(O)c(Cl)c1)S(=O)(=O)c1ccc(O)cc1 [Compound 24b]
fulfilled

Determine whether this compound shows Relative binding affinity (RBA) ERβ lower than 0.1% (ties excluded): O=S(=O)(c1ccc(O)cc1)N(CC(F)(F)F)c1ccc(O)cc1 [Compound 20k]
not fulfilled

Next:
Determine whether this compound shows Relative binding affinity (RBA) ERβ lower than 0.1% (ties excluded): CCN(c1ccc(O)cc1)S(=O)(=O)c1ccc(O)cc1 [Compound 20b]
not fulfilled

Determine whether this compound shows Relative binding affinity (RBA) ERβ lower than 0.1% (ties excluded): CCCC(C)N(c1ccc(O)cc1)S(=O)(=O)c1ccc(O)cc1 (stereo not shown) [Compound 20i]
not fulfilled

Determine whether this compound shows Relative binding affinity (RBA) ERβ lower than 0.1% (ties excluded): CCCN(c1ccc(O)c(F)c1)S(=O)(=O)c1ccc(O)cc1 [Compound 24a]
not fulfilled

Determine whether this compound shows Relative binding affinity (RBA) ERβ lower than 0.1% (ties excluded): CCC(C)N(c1ccc(O)cc1)S(=O)(=O)c1ccc(O)cc1 (racemic) [Compound 20h (Racemic)]
not fulfilled

Determine whether this compound shows Relative binding affinity (RBA) ERβ lower than 0.1% (ties excluded): CC(C)CN(c1ccc(O)cc1)S(=O)(=O)c1ccc(O)cc1 [Compound 20e]
not fulfilled

Determine whether this compound shows Relative binding affinity (RBA) ERβ lower than 0.1% (ties excluded): O=S(=O)(c1ccc(O)cc1)N(CCC(F)(F)F)c1ccc(O)cc1 [Compound 20l]
not fulfilled

Determine whether this compound shows Relative binding affinity (RBA) ERβ lower than 0.1% (ties excluded): CC(C)N(c1ccc(O)cc1)S(=O)(=O)c1ccc(O)cc1 [Compound 20g]
not fulfilled

Determine whether this compound shows Relative binding affinity (RBA) ERβ lower than 0.1% (ties excluded): CCC(CC)N(c1ccc(O)cc1)S(=O)(=O)c1ccc(O)cc1 [Compound 20j]
not fulfilled

* * *

Relative binding affinity (RBA) ERα values by entry
target: purified full-length human ERalpha (Homo sapiens, UniProt P03372); construct: purified full-length human ERalpha and ERbeta receptors purchased from Pan Vera (Madison, Wis.); purchased Pan Vera (Madison, Wis.); test: Competitive radiometric binding assay, relative binding affinity (RBA), ERalpha; conditions: normalized to estradiol set at 100%; [3H]estradiol 10 nM tracer, 18-24 h at 0° C
Sequence (P03372 whole entry): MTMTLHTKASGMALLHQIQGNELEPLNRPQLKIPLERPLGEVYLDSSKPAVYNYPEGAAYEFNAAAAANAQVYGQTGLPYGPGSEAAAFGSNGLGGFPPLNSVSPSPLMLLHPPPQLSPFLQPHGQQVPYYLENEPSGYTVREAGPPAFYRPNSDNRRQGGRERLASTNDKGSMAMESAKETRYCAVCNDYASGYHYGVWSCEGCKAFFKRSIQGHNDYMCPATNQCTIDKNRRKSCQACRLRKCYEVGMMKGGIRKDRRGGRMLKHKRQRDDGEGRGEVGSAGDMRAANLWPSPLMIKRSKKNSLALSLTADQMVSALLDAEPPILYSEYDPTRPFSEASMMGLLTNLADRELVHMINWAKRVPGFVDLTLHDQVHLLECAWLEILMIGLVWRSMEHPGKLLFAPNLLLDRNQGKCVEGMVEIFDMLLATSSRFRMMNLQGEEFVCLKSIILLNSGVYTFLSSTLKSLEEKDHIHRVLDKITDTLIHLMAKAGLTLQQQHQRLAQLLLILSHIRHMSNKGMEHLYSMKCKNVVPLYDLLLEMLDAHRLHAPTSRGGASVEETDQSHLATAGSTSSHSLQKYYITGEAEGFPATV
Answer in %, number only, no unit symbol.

Given the entry O=S(=O)(c1ccc(O)cc1)N(CCC(F)(F)F)c1ccc(O)c(Cl)c1 [Compound 28b] , report its measured Relative binding affinity (RBA) ERα.
0.003

* * *

biological target: purified full-length human ERalpha (Homo sapiens); construct: purified full-length human ERalpha and ERbeta receptors purchased from Pan Vera (Madison, Wis.); purchased Pan Vera (Madison, Wis.); assay: Competitive radiometric binding assay, relative binding affinity (RBA), ERalpha; details: normalized to estradiol set at 100%; [3H]estradiol 10 nM tracer, 18-24 h at 0° C
OUTCOME MEASURE: Relative binding affinity (RBA) ERα
Units required after the number.

# annotated cases, reported Relative binding affinity (RBA) ERα shown
Lab note: need Relative binding affinity (RBA) ERα with purified full-length human ERalpha (Homo sapiens) for entry CCCN(c1ccc(O)c(F)c1)S(=O)(=O)c1ccc(O)cc1 [Compound 24a] , please look it up.
0.011%

Lab note: need Relative binding affinity (RBA) ERα with purified full-length human ERalpha (Homo sapiens) for entry CC(C)CN(c1ccc(O)cc1)S(=O)(=O)c1ccc(O)cc1 [Compound 20e] , please look it up.
0.013%

Lab note: need Relative binding affinity (RBA) ERα with purified full-length human ERalpha (Homo sapiens) for entry O=S(=O)(c1ccc(O)cc1)N(CCC(F)(F)F)c1ccc(O)c(F)c1 [Compound 28a] , please look it up.
0.009%

Lab note: need Relative binding affinity (RBA) ERα with purified full-length human ERalpha (Homo sapiens) for entry CC(C)N(c1ccc(O)cc1)S(=O)(=O)c1ccc(O)cc1 [Compound 20g] , please look it up.
0.012%

Lab note: need Relative binding affinity (RBA) ERα with purified full-length human ERalpha (Homo sapiens) for entry CN(c1ccc(O)cc1)S(=O)(=O)c1ccc(O)cc1 [Compound 20a] , please look it up.
0.009%

Lab note: need Relative binding affinity (RBA) ERα with purified full-length human ERalpha (Homo sapiens) for entry CCC(C)N(c1ccc(O)cc1)S(=O)(=O)c1ccc(O)cc1 (racemic) [Compound 20h (Racemic)] , please look it up.
0.006%

Lab note: need Relative binding affinity (RBA) ERα with purified full-length human ERalpha (Homo sapiens) for entry O=S(=O)(c1ccc(O)cc1)N(CCC(F)(F)F)c1ccc(O)cc1 [Compound 20l] , please look it up.
0.006%

Lab note: need Relative binding affinity (RBA) ERα with purified full-length human ERalpha (Homo sapiens) for entry CCCN(c1ccc(O)c(Cl)c1)S(=O)(=O)c1ccc(O)cc1 [Compound 24b] , please look it up.
0.005%

Next:
Lab note: need Relative binding affinity (RBA) ERα with purified full-length human ERalpha (Homo sapiens) for entry O=S(=O)(c1ccc(O)cc1)N(CC(F)(F)F)c1ccc(O)cc1 [Compound 20k] , please look it up.
0.020%
